The origin of these recorded values is patent US6512097.

# target.or.system: T1, c-erbB-2 ECD with a Ser-Gly-His6 C-terminal fusion (UniProt P04626 23-652)
# T1 construct: extracellular domain; Expressed from CHO cells, IMAC purified; coupled to a CM5 chip, coated on plates, or biotinylated with NHS-LC-biotin; also called c-erbB-2 extracellular domain; biotinylated c-erbB-2 ECD
# procedure.details: SPR BIAcore
Entries annotated with measured kon
recorded.endpoint: kon (M⁻¹ s⁻¹)

binder="C6.5D96A (scFv, C6.5 VH CDR3 scan mutant; Kabat numbering) scFv: QVQLLQSGAELKKPGESLKISCKGSGYSFTSYWIAWVRQMPGKGLEYMGLIYPGDSDTKYSPSFQGQVTISVDKSVSTAYLQWSSLKPSDSAVYFCARHAVGYCSSSNCAKWPEYFQHWGQGTLVTVSSGGGGSGGGGSGGGGSQSVLTQPPSVSAAPGQKVTISCSGSSSNIGNNYVSWYQQLPGTAPKLLIYGHTNRPAGVPDRFSGSKSGTSASLAISGFRSEDEADYYCAAWDDSLSGWVFGGGTKLTVLG" unit_descriptor="M⁻¹ s⁻¹" meas_value=220000
binder="C6.5H102A (scFv, C6.5 VH CDR3 scan mutant; Kabat numbering) scFv: QVQLLQSGAELKKPGESLKISCKGSGYSFTSYWIAWVRQMPGKGLEYMGLIYPGDSDTKYSPSFQGQVTISVDKSVSTAYLQWSSLKPSDSAVYFCARHDVGYCSSSNCAKWPEYFQAWGQGTLVTVSSGGGGSGGGGSGGGGSQSVLTQPPSVSAAPGQKVTISCSGSSSNIGNNYVSWYQQLPGTAPKLLIYGHTNRPAGVPDRFSGSKSGTSASLAISGFRSEDEADYYCAAWDDSLSGWVFGGGTKLTVLG" unit_descriptor="M⁻¹ s⁻¹" meas_value=590000
